system: GLXMAW Soybean, Williams; test: Postemergence herbicidal evaluation, GLXMAW; assay type: in vivo, Glycine max, (L.) Merr. cv Williams; parameters: scale not given here; conditions: 0.016 kg/ha, postemergence spray, rated about two-three weeks after treatment
VALUE_KIND: Postemergence herbicidal rating GLXMAW
Form rule: numeric answer, no unit written next to it.

{"COMPOUND": "CCc1ccc(-n2nnc3cc(F)c(-n4c(=O)cc(C(F)(F)F)n(C)c4=O)cc32)cc1COC [Example 28]", "Postemergence herbicidal rating GLXMAW": 5.0}
{"COMPOUND": "Cc1ccc(OCC(=O)O)cc1-n1nnc2cc(F)c(-n3c(=O)cc(C(F)(F)F)n(C)c3=O)cc21 [Example 37]", "Postemergence herbicidal rating GLXMAW": 4.0}
{"COMPOUND": "COC(=O)COc1ccc(C)cc1-n1nnc2cc(F)c(-n3c(=O)cc(C(F)(F)F)n(C)c3=O)cc21 [Example 34]", "Postemergence herbicidal rating GLXMAW": 6.5}
{"COMPOUND": "Cn1c(C(F)(F)F)cc(=O)n(-c2cc3c(cc2F)nnn3-c2ccc(OCC(=O)O)cc2)c1=O [Example 44]", "Postemergence herbicidal rating GLXMAW": 6.5}

Now consider the entry below.
### Prompt So what's the measured Postemergence herbicidal rating GLXMAW for this one? COc1ccccc1-n1nnc2cc(F)c(-n3c(=O)cc(C(F)(F)F)n(C)c3=O)cc21 [Example 16]
### Response 5.0
